System: BWbacA-singleΔtolC strain
Experiment: Growth inhibition / MIC in 2YT liquid medium
Format: cell-based, E. coli
Conditions: TolC/PAP2-depleted BWbacA-singleΔtolC; 500 µM compound
measured.quantity: growth inhibition

> print(dat)
                                test.smiles     reported.measurement
1  CC(C)Oc1ccc(NS(=O)(=O)c2cc(C(=O)O)cs2)cc1  total growth inhibition
2     Cc1ccc(NS(=O)(=O)c2cc(C(=O)O)cs2)cc1C  total growth inhibition
3  O=C(O)c1csc(S(=O)(=O)Nc2ccc(N3CCCC3)c(F)c2)c1  total growth inhibition
4   O=C(O)c1csc(S(=O)(=O)Nc2ccc3ccccc3c2)c1  total growth inhibition

* * *

So I've got a bunch of compounds here, and I need their BacA RA (%) values.
Target: UniProtKB P60932
Conditions: residual activity in the presence of 100 µM compound; 50 µM C55-PP; 5 nM BacA; 10 min 37 °C
One number for each entry, in %.

Please state BacA RA (%) for every compound in the list that follows.
1. Cc1ccc(NS(=O)(=O)c2cc(C(=O)O)cs2)cc1C
2. CC(C)Oc1ccc(NS(=O)(=O)c2cc(C(=O)O)cs2)cc1
3. O=C(O)c1csc(S(=O)(=O)Nc2ccc3ccccc3c2)c1
4. O=C(O)c1csc(S(=O)(=O)Nc2ccc3[nH]c(=O)sc3c2)c1

1. 66
2. 80
3. 70
4. 76

* * *

For each record, write down the corresponding pIC50.
Target: BacA (Escherichia coli)
Sequence (P60932 whole entry): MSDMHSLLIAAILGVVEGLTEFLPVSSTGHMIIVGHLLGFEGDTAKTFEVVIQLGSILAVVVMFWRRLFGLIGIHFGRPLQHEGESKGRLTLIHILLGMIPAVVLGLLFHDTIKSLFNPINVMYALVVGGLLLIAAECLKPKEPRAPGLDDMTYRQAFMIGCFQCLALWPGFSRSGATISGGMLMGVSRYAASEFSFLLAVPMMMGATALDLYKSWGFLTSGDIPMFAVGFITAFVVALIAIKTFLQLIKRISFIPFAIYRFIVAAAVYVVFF
Settings: 50 µM C55-PP; 5 nM BacA; average of at least three experiments
Give bare numbers, as −log10 of the molar value.

> print(dat)
                                test.smiles  reported.measurement
1     Cc1ccc(NS(=O)(=O)c2cc(C(=O)O)cs2)cc1C                  3.88
2  O=C(O)c1csc(S(=O)(=O)Nc2ccc3[nH]c(=O)sc3c2)c1                  3.47

Dear reader, for each entry below, please note its pIC50.
1. CC(C)Oc1ccc(NS(=O)(=O)c2cc(C(=O)O)cs2)cc1
2. O=C(O)c1csc(S(=O)(=O)Nc2ccc3ccccc3c2)c1

1: 3.44; 2: 3.82
